# Lookup of reported pIC50 keyed by entry
Biological target: thrombin (Homo sapiens, UniProt P00734)
Test: Thrombin-inhibitory activity in plasma samples (ecarin-activated)
Format: biochemical
Details: citrate plasma, ecarin activation, fluorogenic thrombin substrate; read at about 70% of maximum signal (about 12 min); in some cases means
pIC50: −log10 of the molar value.
READOUT LABEL: pIC50

>>> print(df.to_string())
                                   molecule  numeric_readout
0  COc1cc(C(=O)N2CC(C)CCC2CCO)cn2nc(NCc3cccc(Cl)c3)nc12 (stereo not shown)             7.20
1  COc1cc(C(=O)N2CC(C)OCC2CCO)cn2nc(NCc3cccc(Cl)c3)nc12 (racemic) [Example 15]             7.12
2  CCC1C(=O)N2CCC2CN1C(=O)c1cc(OC)c2nc(NCc3cccc(Cl)c3)nn2c1 (single isomer, unassigned) [Example 59]             7.96
3  COc1cc(C(=O)N2CC(C)OCC2C2CC(O)C2)cn2nc(NCc3cccc(Cl)c3)nc12 (single isomer, unassigned) [Example 4]             7.64
4  COc1cc(C(=O)N2CC3CCN3C(=O)C2C)cn2nc(NCc3cccc(Cl)c3)nc12 (single isomer, unassigned)             7.77
5  COc1cc(C(=O)N2CC(C)(CCO)OCC2CF)cn2nc(NCc3cccc(Cl)c3)nc12 (single isomer, unassigned) [Example 54]             6.21
6  COCC1COC(C)(C)CN1C(=O)c1cc(OC)c2nc(NCc3cccc(Cl)c3)nn2c1 (racemic)             7.19

----------
Molecular target: thrombin (Homo sapiens)
Test: Thrombin-inhibitory activity in plasma samples (ecarin-activated)
Assay type: biochemical
Settings: citrate plasma, ecarin activation, fluorogenic thrombin substrate; read at about 70% of maximum signal (about 12 min); in some cases means
pIC50: −log10 of the molar value.
# Lookup of reported pIC50 keyed by entry
READOUT LABEL: pIC50

In [3]: df
Out[3]:
                                   molecule            target_system  readout_label  numeric_readout
0  COc1cc(C(=O)N2CC(C)(CC(C)O)OCC2(C)C)cn2nc(NCc3cccc(Cl)c3)nc12 (single isomer, unassigned) [Example 39]  thrombin (Homo sapiens)          pIC50             7.47
1  CCC1C(=O)N2CCC2CN1C(=O)c1cc(OC)c2nc(NCc3cccc(Cl)c3)nn2c1 (stereo not drawn) [Example 58]  thrombin (Homo sapiens)          pIC50             7.41
2  COc1cc(C(=O)N2CC(C)OCC2C2CC(O)C2)cn2nc(NCc3cccc(Cl)c3)nc12 (single isomer, unassigned) [Example 3]  thrombin (Homo sapiens)          pIC50             7.15
3  COc1cc(C(=O)N2CC(C)OCC2C(C)(C)O)cn2nc(NCc3cccc(Cl)c3)nc12 (single isomer, unassigned)  thrombin (Homo sapiens)          pIC50             7.12
4  COc1cc(C(=O)N2CC(C)(CC(C)O)OCC2CF)cn2nc(NCc3cccc(Cl)c3)nc12 (single isomer, unassigned)  thrombin (Homo sapiens)          pIC50             8.23
5  COc1cc(C(=O)N2CC(C)OC[C@H]2C)cn2nc(NC(CF)c3cccc(Cl)c3)nc12 (single isomer, unassigned)  thrombin (Homo sapiens)          pIC50             7.06
